- Protocol text: Solubility pH 7.6
- Assay type: physicochemical
Property name: solubility (mM)
Give bare numbers, in mM.

CC(=O)Nc1nnc(S(N)(=O)=O)s1 [acetazolamide] | 6.7

In: // query solubility value for entry Nc1nnc(S(N)(=O)=O)s1 [WP-061786, 2-amino-1,3,4-thiadiazole-5-sulfonamide]
Out: 28.4

----------
- Protocol text: physchem
- Details: reverse phase hplc lc-18-db, pH 2
Property name: chromatographic logP
Give bare numbers.

Nc1nnc(S(N)(=O)=O)s1 [WP-061786, 2-amino-1,3,4-thiadiazole-5-sulfonamide] | -0.409

# evaluate next
In: Which value of chromatographic logP has been reported for CCOC(=O)CCCCC(=O)NS(=O)(=O)c1nnc(NC(C)=O)s1 [AAOEt, acetazolamide-adipate-ethyl ester] in the records?
Out: 0.238

----------
- Target desc: carbonic anhydrase
- Protocol text: Carbonic anhydrase inhibition (modified micromethod, CO2/bicarbonate colour change time)
- Details: read-out: KI as carbonic anhydrase inhibitor
Property name: pKi
Answers are plain numbers, as −log10 of the molar value.

In: Recorded pKi for "NS(=O)(=O)c1nnc(NC(=O)CCC(=O)NCCCCCC(O)(P(=O)(O)O)P(=O)(O)O)s1" , please?
Out: 6.92
